The measured values listed here are drawn from patent US20220177604A1.

Record form. Attribute: EC50. Fill in for each entry.
- SUBJECT OF TEST: T1, recombinant Motavizumab human IgE (rMota-hIgE) (human, UniProt P01854 1-428)
- T1 construct: also called Recombinant IgE (argenx)
- PROTOCOL NOTES: hIgE binding ELISA, pH 7.4
Express it in µg/mL; write the number only.

Query: Quickly give me recorded EC50 for OmaVH15G55H - VL3S31H (antibody, V domains shown) VH: EVQLVESGGGLVQPGGSLRLSCAVSGYSITSGHRWEWIRQAPGKGLEWVASIHYDHSTNYNPSVKGRITISRDDSKNTFYLQMNSLRAEDTAVYYCARATHYFGHWHFAVWGQGTLVTVSS VL: DIQLTQSPSSLSASVGDRVTITCRASQSVDYDGDHYMNWYQQKPGKAPKLLIEWGSYLRSGVPSRFSGSGSGTDFTLTISSLQPEDFATYYCQQNAEDPYTFGQGTKVEIK
Reply: 0.0153

Query: Tell me EC50 reported for Oma VH15W100b - VL3 (antibody, V domains shown) VH: EVQLVESGGGLVQPGGSLRLSCAVSGYSITSGHRWEWIRQAPGKGLEWVASIHYDGSTNYNPSVKGRITISRDDSKNTFYLQMNSLRAEDTAVYYCARATHYFGHHHFAVWGQGTLVTVSS VL: DIQLTQSPSSLSASVGDRVTITCRASQSVDYDGDSYMNWYQQKPGKAPKLLIEWGSYLRSGVPSRFSGSGSGTDFTLTISSLQPEDFATYYCQQNAEDPYTFGQGTKVEIK
Reply: 0.0174

Query: Provide EC50 value for the following binder: Oma VH15W100b - VL3D28HS31H (antibody, V domains shown) VH: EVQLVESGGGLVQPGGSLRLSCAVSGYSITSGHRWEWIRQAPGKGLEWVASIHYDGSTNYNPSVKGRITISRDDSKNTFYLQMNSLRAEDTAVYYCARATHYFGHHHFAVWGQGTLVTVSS VL: DIQLTQSPSSLSASVGDRVTITCRASQSVDYHGDHYMNWYQQKPGKAPKLLIEWGSYLRSGVPSRFSGSGSGTDFTLTISSLQPEDFATYYCQQNAEDPYTFGQGTKVEIK
Reply: 0.0156

Query: // Input: OMA VH15 - VL3D28H (antibody, V domains shown, also called OMA VH15 VL3D25H) VH: EVQLVESGGGLVQPGGSLRLSCAVSGYSITSGHRWEWIRQAPGKGLEWVASIHYDGSTNYNPSVKGRITISRDDSKNTFYLQMNSLRAEDTAVYYCARATHYFGHWHFAVWGQGTLVTVSS VL: DIQLTQSPSSLSASVGDRVTITCRASQSVDYHGDSYMNWYQQKPGKAPKLLIEWGSYLRSGVPSRFSGSGSGTDFTLTISSLQPEDFATYYCQQNAEDPYTFGQGTKVEIK . Output its EC50 only.
Reply: 0.0163

Query: Entry OMA VH15 - VL3S31H (antibody, V domains shown) VH: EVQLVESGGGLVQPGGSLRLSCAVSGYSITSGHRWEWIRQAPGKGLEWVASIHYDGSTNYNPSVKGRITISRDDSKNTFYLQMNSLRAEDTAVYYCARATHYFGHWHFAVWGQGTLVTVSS VL: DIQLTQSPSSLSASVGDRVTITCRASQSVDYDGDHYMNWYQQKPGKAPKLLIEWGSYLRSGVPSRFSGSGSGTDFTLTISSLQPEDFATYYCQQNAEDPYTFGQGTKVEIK needs its EC50 filled in; supply it.
Reply: 0.02

Query: Supply reported EC50 belonging to this binder: OmaVH15G55HW100b - VL3S31H (antibody, V domains shown) VH: EVQLVESGGGLVQPGGSLRLSCAVSGYSITSGHRWEWIRQAPGKGLEWVASIHYDHSTNYNPSVKGRITISRDDSKNTFYLQMNSLRAEDTAVYYCARATHYFGHHHFAVWGQGTLVTVSS VL: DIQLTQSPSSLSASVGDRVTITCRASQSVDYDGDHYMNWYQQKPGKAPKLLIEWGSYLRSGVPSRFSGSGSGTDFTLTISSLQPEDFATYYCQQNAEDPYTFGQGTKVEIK
Reply: 0.0191

Query: Supply measured EC50 of OmaVH15G55H - VL3 (antibody, V domains shown) VH: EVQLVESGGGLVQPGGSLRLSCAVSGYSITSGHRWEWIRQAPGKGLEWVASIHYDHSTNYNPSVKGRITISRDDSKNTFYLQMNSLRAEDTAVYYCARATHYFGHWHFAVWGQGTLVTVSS VL: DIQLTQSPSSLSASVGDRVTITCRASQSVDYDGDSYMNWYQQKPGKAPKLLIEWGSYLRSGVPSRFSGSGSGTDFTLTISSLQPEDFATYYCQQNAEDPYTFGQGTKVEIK in your reply.
Reply: 0.0255

Query: // fetch EC50 given entry OmaVH15G55HW100b - VL3 (antibody, V domains shown) VH: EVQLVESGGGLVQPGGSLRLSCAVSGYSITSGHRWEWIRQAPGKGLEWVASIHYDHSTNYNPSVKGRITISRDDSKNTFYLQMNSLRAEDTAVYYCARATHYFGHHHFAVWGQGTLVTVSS VL: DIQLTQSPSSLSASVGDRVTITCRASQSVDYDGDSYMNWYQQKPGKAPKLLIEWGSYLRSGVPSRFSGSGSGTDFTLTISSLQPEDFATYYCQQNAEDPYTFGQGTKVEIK
Reply: 0.0164

Query: Give reported EC50 value for OMA VH15 - VL3D28HS31H (antibody, V domains shown) VH: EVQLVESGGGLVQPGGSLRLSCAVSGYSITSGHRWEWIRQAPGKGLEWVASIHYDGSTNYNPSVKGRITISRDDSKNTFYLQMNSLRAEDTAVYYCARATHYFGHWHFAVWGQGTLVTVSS VL: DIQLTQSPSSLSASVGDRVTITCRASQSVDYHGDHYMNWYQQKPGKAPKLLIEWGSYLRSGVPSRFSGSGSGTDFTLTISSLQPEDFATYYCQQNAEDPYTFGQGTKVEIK
Reply: 0.0153

Query: Query EC50 for OmaVH15G55H - VL3D28H (antibody, V domains shown, also called OmaVH15G55H VL3D25H) VH: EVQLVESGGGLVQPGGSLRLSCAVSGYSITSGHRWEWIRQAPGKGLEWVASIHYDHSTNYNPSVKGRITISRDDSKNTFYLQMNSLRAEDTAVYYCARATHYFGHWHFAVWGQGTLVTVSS VL: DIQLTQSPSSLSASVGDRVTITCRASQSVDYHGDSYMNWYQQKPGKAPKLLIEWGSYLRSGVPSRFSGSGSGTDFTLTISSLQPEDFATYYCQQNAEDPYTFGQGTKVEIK
Reply: 0.0264
